# Tested on: SF-268 CNS
# Experiment Description: NCI tumour cell line growth inhibition, 48 h
Endpoint: TGI

Record excerpt, results attached:
# Compound, Reported Result
records = [
    ("Cc1cc2c3c(nc4ccccc42)C(=O)c2ccccc2-c3n1", "> 100 µM"),
    ("CSC(=S)N(C)C", "> 100 µM"),
]

Enter reported TGI observed with SF-268 CNS for Cc1cc(C(=O)CCCCOc2ccc(C3=NCCO3)cc2)c(C)n1C > 100 µM

Form entry - test system: SF-268 CNS; read-out: TGI; compound: OCCc1ccsc1-c1sc(-c2cc(CCO)c(-c3sccc3CCO)s2)cc1CCO 14 µM

Form: Entry = Cc1c(S(=O)(=O)c2ccccc2)c(N)n(CCN(C)C)c1C | System = SF-268 CNS | TGI = ____ > 100 µM

Hi! What's the reported TGI for C[Si](C)(C)C1(Sc2ccccc2)SCCCS1 on SF-268 CNS? > 100 µM

For the record COc1cccc2c1OC1(C=C2)Oc2ccccc2C(=O)N1C (stereo not given) , what value of TGI is listed for SF-268 CNS? > 100 µM

* * *

# Test system: SNB-75 CNS
# Experiment Description: NCI tumour cell line growth inhibition, 48 h
Reported TGI is given for each of the following compounds.
Field format: number, assumed µM, no unit text.

Record excerpt, results attached:
# Compound, Reported Result
data = [
    ("COC(=O)C1=C(C)NC(C)=C(C(=O)OCCCN2CCC(c3ccccc3)(c3ccccc3)CC2)C1c1cccc([N+](=O)[O-])c1 (stereo not given)", 9.84),
    ("O=C(CCc1nnc2sc(-c3ccc(Cl)cc3Cl)nn12)c1nc2ncccc2[nH]1", 3.79),
    ("CC[C@H](Nc1ncnc2nc[nH]c12)c1oc2ccccc2c(=O)c1-c1cccc(F)c1", 56.1),
    ("OCc1ccc(-c2ccc(-c3ccc(CO)s3)o2)s1", 80.3),
    ("Cc1cc2c(cc1Cl)SC(N(N(C)C)S(=O)(=O)c1ccc(Cl)cc1)=NS2(=O)=O", 97.5),
    ("O=c1c2sc(=S)n(-c3ccc(F)cc3)c2ncn1/N=C/c1ccc(F)cc1F", 32.8),
    ("Cn1cnc([N+](=O)[O-])c1Sc1nc2ccccc2[nH]1", 49.9),
    ("CO[C@H]1/C=C(/C)CCC[C@H](C)[C@H](O)[C@@H](C)C(=O)C(C)(C)[C@@H](O)CC(=O)O[C@@H]1/C(C)=C/c1csc(C)n1", 0.0319),
]

Consider the compound shown here: Brc1ccccc1C1SCc2nc3ccccc3n21 (stereo not given) What is its recorded TGI? 47.1

* * *

# System: COLO 205 colon
# Experiment Description: NCI tumour cell line growth inhibition, 48 h
Catalogue of molecules with associated TGI

Solved entries (count: 4):
# Molecule, Endpoint, Reported Result
rows = [
    ("O=C1NCC2(CCN(CCCC3(c4ccc(F)cc4)OCCO3)CC2)N1c1ccccc1", "TGI", "> 100 µM"),
    ("CSC(=S)N(C)C", "TGI", "> 100 µM"),
    ("COc1ncnc(NS(=O)(=O)c2ccc(N=C3C(=O)N(CN4CCN(c5c(F)cc6c(=O)c(C(=O)O)cn(C7CC7)c6c5OC)CC4C)c4ccc(Cl)cc43)cc2)c1OC (stereo not given)", "TGI", "> 50 µM"),
    ("Cc1c(S(=O)(=O)c2ccccc2)c(N)n(CCN(C)C)c1C", "TGI", "> 100 µM"),
]

Please give the measured TGI for this molecule: COc1cccc(CCCNC(=O)Cc2cc(OC)c(OC)cc2CO)c1 > 100 µM

* * *

# Test system: RPMI-8226 leukemia
# Experiment Description: NCI tumour cell line growth inhibition, 48 h
Reported TGI values follow for various compounds

# Compound, TGI
data = [
    ("Nc1ncnc2n[nH]c(Nc3ccc(F)cc3)c12", "> 100 µM"),
    ("CCOC(=O)CC(=O)ON(C)C(C)=O", "> 100 µM"),
    ("C=C1NC(=O)C(C(C)CC)NC(=O)C2CSCC(NC(=O)CCC(=O)O)C(=O)NC(Cc3ccccc3)C(=O)NC(C)C(=O)NC(CC(C)CC)C(=O)NC(C(=O)NC(Cc3ccccc3)C(=O)N3CCCC3C(=O)N2)C(C)OC(=O)C(CO)NC(=O)C(C(O)COC)N(C)C(=O)C(C(C)C)NC(=O)C(CC(C)CC)NC1=O (centres undefined)", "> 6 µM"),
    ("CSC(=S)N/N=C(\\C)c1ccc(S(=O)(=O)N(C)c2ccccc2)cc1", "> 100 µM"),
    ("N#CC(C#N)=CNC(N)=S", "> 100 µM"),
]

Name the recorded TGI for CO[C@H]1/C=C(/C)CCC[C@H](C)[C@H](O)[C@@H](C)C(=O)C(C)(C)[C@@H](O)CC(=O)O[C@@H]1/C(C)=C/c1csc(C)n1 . > 100 µM

TGI for c1c[nH]c(-c2ccc(-c3ccc[nH]3)c3nsnc23)c1 ? > 52.6 µM

State the recorded TGI for this entry: CSc1nsc(-c2ccccc2)[s+]1 > 100 µM

Name the reported TGI value associated with the compound CC(C)OP(=O)(OC(C)C)C(=NCCN=C(NNc1ccc([N+](=O)[O-])cc1)P(=O)(OC(C)C)OC(C)C)NNc1ccc([N+](=O)[O-])cc1 > 100 µM

* * *

Entries and their TGI values follow.
# Tested on: OVCAR-4 ovarian
# Experiment Description: NCI tumour cell line growth inhibition, 48 h

Examples with their reported TGI follow.
# Molecule, TGI
records = [
    ("O=C1OC(O)[C@@H]2[C@H]1[C@H]1CC[C@@H]2O1 (stereo not given in full)", "> 100 µM"),
    ("Cc1cc(C(=O)CCCCOc2ccc(C3=NCCO3)cc2)c(C)n1C", "> 100 µM"),
    ("O=C(Nc1ccc(Cl)cc1)c1cccc(NC2=C(Cl)C(=O)N(Cc3ccccc3)C2=O)c1", "34.8 µM"),
    ("OCC#Cc1ccccc1C#Cc1ccccc1", "45.2 µM"),
    ("COc1cc(NCc2ccc3oc(=O)c(-c4ccccc4)nc3c2)cc(OC)c1OC", "> 10 µM"),
    ("CC(C)=Cc1cc(C(=O)Nc2ccc(Cl)c(Cl)c2)nc(N)n1", "> 100 µM"),
    ("Cc1ccc2c(c1)C(=O)C1(Cc3ccccc3C1=O)C2 (stereo not given)", "> 100 µM"),
    ("CC(=O)/C(=C\\c1cccc([N+](=O)[O-])c1)C(=O)Nc1ccccc1C", "> 100 µM"),
]

Could you tell me which TGI is on file for CCN1CCN(c2nc(C)cc(N(CCNc3ccnc4cc(Cl)ccc34)Cc3ccc4c(c3)OCO4)n2)CC1 ? 11.4 µM

Suppose we examine the molecule CC[C@H](Nc1ncnc2nc[nH]c12)c1oc2ccccc2c(=O)c1-c1cccc(F)c1 ; what TGI value has been reported? > 100 µM

* * *

# Tested on: HL-60(TB) leukemia
# Experiment Description: NCI tumour cell line growth inhibition, 48 h
Endpoint: TGI

Some solved cases for reference:
# Compound, Endpoint, Reported Result
rows = [
    ("C#CC1(O)CCC2C3CCc4cc(Oc5nc(F)nc(-c6c7ccccc7c7sc8ccccc8n67)n5)ccc4C3CC[C@@]21C (stereo partly specified)", "TGI", "> 100 µM"),
    ("CN(C)c1ccc(/C=C(\\NC(=O)c2ccccc2)c2nc3ncncc3[nH]2)cc1", "TGI", "> 100 µM"),
    ("CC(=O)OC1=CC(n2cc(F)c(=O)[nH]c2=O)OC(C)C1=O (stereo unspecified)", "TGI", "> 100 µM"),
    ("CCNC(=O)Cc1nc2c(N)ncnc2n1C1OC(CO)C(O)C1O (stereo unspecified)", "TGI", "> 100 µM"),
    ("CCc1cc(Cc2cc(CC)c(NC(=O)C(=O)Cc3ccccn3)c(CC)c2Cl)c(Cl)c(CC)c1NC(=O)C(=O)Cc1ccccn1", "TGI", "> 100 µM"),
    ("COc1ccc(S(=O)(=O)NNS(C)(=O)=O)cc1", "TGI", "> 100 µM"),
    ("CC1(C)C2CCC(=O)C1CC2 (stereo unspecified)", "TGI", "> 100 µM"),
    ("O=C1OC(O)[C@@H]2[C@H]1[C@H]1CC[C@@H]2O1 (stereo partly specified)", "TGI", "> 100 µM"),
    ("CCC1(CC)C(=O)NN(C(=O)c2ccccc2)C1=O", "TGI", "> 100 µM"),
    ("CCOC(=O)c1cn2c(nc1=O)N[C@H]1CCCC[C@@H]12", "TGI", "> 100 µM"),
]

Next:
For the compound shown here, COc1cc(NS(C)(=O)=O)ccc1Nc1cc(C)[nH]c2ccc3nccc3c12 , give the reported TGI. > 100 µM
